Test system: NCI-H226 lung
Test: NCI-60 one-dose screen, 48 h
Settings: 10 µM unless noted
About 83,000 compounds went through this panel and 20% of them were active in at least one assay; those are over-represented in the sample as a whole. Active and inactive are the calls of the source. The calls were made as follows: active = growth percent below 10; inactive = the rest.
Give your call using only these classes: Yes for active, No for inactive

>  <Compound>
CCCCNC(=O)Oc1ccc(/C(=C(\C)c2ccc(Cl)cc2)c2ccc(OCCN3CCCCC3)cc2)cc1

>  <Category>
No

$$$$
>  <Compound>
O=C(COc1ccc(/C=C2\Cc3ccc(Cl)cc3C2=O)cc1)Nc1nc2ccccc2s1

>  <Category>
No

$$$$
>  <Compound>
CCOC(=O)c1sc2ncc(-c3ccc(OC)cc3)n2c1C

>  <Category>
No

$$$$
>  <Compound>
COc1ccc(OC)c(/C=C2\Oc3cc(OCCN4CCC(Cc5ccccc5)CC4)ccc3C2=O)c1

>  <Category>
No

$$$$
>  <Compound>
CN(C)CCN1CCN(c2ncccc2C2Nc3ccccc3-n3cccc32)CC1 (centres undefined)

>  <Category>
No

$$$$
>  <Compound>
COc1cc(CCC[P+](c2ccccc2)(c2ccccc2)c2ccccc2)c(OC)c2c1OCO2

>  <Category>
No

$$$$
>  <Compound>
CC1Cc2c(ncn3c(-c4ccc(F)cc4)nnc23)N(C)c2ccccc21 (centres undefined)

>  <Category>
No

$$$$
>  <Compound>
CCOC(=O)Cn1c(=O)c2c(c3ccccc3n2C)n2nnc(-c3ccccc3)c12

>  <Category>
No

$$$$
>  <Compound>
CNc1nc2c(s1)C(c1cccc(F)c1)CC(=O)N2 (centres undefined)

>  <Category>
No

$$$$
>  <Compound>
CCOC(=O)c1c2c(n(-c3ccc(C#N)cc3)c1-c1ccccc1)C=CCC2

>  <Category>
No

$$$$

Hi team, can someone confirm the assay call for `O=c1ccn(Cc2cn(-c3c4ccccc4nc4ccccc34)nn2)c(=O)[nH]1` ?
No

Which outcome was assigned to `COc1nc2ccccc2cc1-c1nc2c(cnn2-c2ccccc2)c(=O)[nH]1` in this test?
No

How did this test come out for CC(=O)OC[C@H]1OC(Sc2sc(C(=O)c3ccc(Br)cc3)c(N)c2-c2nc3ccccc3s2)[C@H](OC(C)=O)[C@@H](OC(C)=O)[C@H]1OC(C)=O (some centres undefined) ?
No

Answer briefly: the call reported for `COc1ccc(CNC(=O)[C@H](O)[C@@H](N)Cc2ccccc2)cc1` in this assay.
No

Can you look up the reported call for CCCC1CCC(O)(C(C)(O)C(=O)NC2C(=O)N3NCCCC3C(=O)N(O)C(C)C(=O)N3NCCCC3C(=O)N3NCC(O)CC3C(=O)NC(C)C(=O)OC2C(C)C)OC1CC (centres undefined) for me?
Yes

I would be grateful if you could indicate the recorded call for `COc1c(B(O)O)cc(F)cc1-c1nc2ccc3[nH]ncc3c2c2c1CCCC2` .
Yes

Could you kindly confirm the outcome this assay logged for `C[N+]1=C(/C=C/c2ccc(O)c3ncccc23)C(C)(C)c2ccccc21` ?
No

In this assay, the call recorded for C=CCc1cc(C)ccc1NC(C(=O)NCC(=O)OC)c1ccccc1 (centres undefined) was what?
No

I would be grateful if you could indicate the recorded call for `CCOC(=O)c1c(C)nc2c(c1N)CC(=O)N2Cc1ccc(F)cc1` .
No

Per the records of this test, what outcome belongs to `CSc1nc2ccc(C)cc2cc1/C=N/O` ?
No

Hi team, can someone confirm the assay call for `CCCCn1c(=O)c(-c2cc(-c3ccc(Cl)cc3)nc(-c3ccc(Cl)cc3)c2)cc2cc(C)ccc21` ?
No

Which outcome did this test record for the compound `COc1cc(C(=O)/C=C/c2ccc(OCCCCCC[P+](c3ccccc3)(c3ccccc3)c3ccccc3)cc2)cc(OC)c1OC` ?
Yes

Status in this test for Cc1cc(O)c(C2=NN(c3ccc(S(N)(=O)=O)cc3)C(/C=C/c3ccccc3)C2)cc1Cl (centres undefined) ?
No

What did this assay record as the result for `COc1cc(C(=O)c2cc(C)c3[nH]c4ccc(O)cc4c3c2C)cc(OC)c1OC` ?
No

State the result this test recorded for `CCOC(=O)Nc1ccc(C(=O)/C=C/c2ccccc2)cc1` .
No
